Catalogue of Aminopeptidase activity values
Tested on: B. intermedius
Test: Aminopeptidase activity on β-naphthylamide substrates
Type: biochemical
Details: strain ATCC 25611; β-naphthylamine liberated after 60 minutes, 37° C.
Protocol: The enzyme activity was measured by the chromogenic properties of N-CBz-glycyl-glycyl-L-arginine-β-naphthylamide which upon hydrolysis gives a visible color. The aminopeptidase activities listed in the table reflect the nanomoles of β-naphthylamine liberated after 60 minutes under the conditions described below. […]
Peptide text beside a SMILES is read from it.

Example entries begin here.
| COMPOUND | Aminopeptidase activity |
| --- | --- |
| Cl.N=C(N)NCCC[C@H](NC(=O)CNC(=O)CNC(=O)OCc1ccccc1)C(=O)Nc1ccc2ccccc2c1 | 0 nmol |
| NC(=O)[C@@H](N)CCC(=O)O | 0 nmol |
| N=C(N)NCCC[C@H](NC(=O)[C@@H](N)CCCNC(=N)N)C(=O)O [Arg-Arg, Arginyl-arginine] (H-Arg-Arg-OH) | 15 nmol |

Consider now this further compound.
q: Respond only with Aminopeptidase activity recorded for N=C(N)NCCC[C@H](NC(=O)CN)C(=O)O [Gly-Arg, Glycyl-arginine] (H-Gly-Arg-OH)
a: 22 nmol

----------
Test system: S. mutans
Type: biochemical
Peptide text beside a SMILES is read from it.
OUTCOME_MEASURE: Aminopeptidase activity
Kindly provide the number alone.

| COMPOUND | Aminopeptidase activity |
| --- | --- |
| N=C(N)NCCC[C@H](NC(=O)[C@@H](N)CCCNC(=N)N)C(=O)O [Arg-Arg, Arginyl-arginine] (H-Arg-Arg-OH) | 1 |
| NCCCC[C@H](N)C(=O)N1CCC[C@H]1C(=O)O [Lys-Pro, Lysyl-proline] (H-Lys-Pro-OH) | 14 |
| N=C(N)NCCC[C@H](NC(=O)CN)C(=O)O [Gly-Arg, Glycyl-arginine] (H-Gly-Arg-OH) | 0 |
| NCC(=O)N1CCC[C@H]1C(=O)O [Gly-Pro, Glycyl-proline] (H-Gly-Pro-OH) | 22 |

Kindly review the next compound as well.
q: Specify the recorded Aminopeptidase activity for C[C@H](NC(=O)[C@@H](N)CCCCN)C(=O)O [Lys-Ala, Lysyl-alanine] (H-Lys-Ala-OH) , system: S. mutans.
a: 2

----------
Test system: Streptococcus mitis
Type: biochemical
Conditions: strain ATCC 9815; β-naphthylamine liberated after 60 minutes, 37° C.
Peptide text beside a SMILES is read from it. * marks the point of attachment. βNA = c1ccc2cc(N*)ccc2c1
OUTCOME_MEASURE: Aminopeptidase activity

Use the examples below as a reference point.
| MOLECULE | Aminopeptidase activity |
| --- | --- |
| C[C@H](N)C(=O)N[C@@H](C)C(=O)N[C@@H](Cc1ccccc1)C(=O)Nc1ccc2ccccc2c1 [Ala-Ala-Phe] (H-Ala-Ala-Phe-βNA) | 3 nmol |
| NC(=O)[C@@H](N)CCC(=O)O | 0 nmol |
| CC(C)C[C@H](NC(=O)[C@@H]1CCCN1C(=O)CN)C(=O)Nc1ccc2ccccc2c1 [Gly-Pro-Leu] (H-Gly-Pro-Leu-βNA) | 27 nmol |
| CSCCC(N)C(=O)Nc1ccc2ccccc2c1 (racemic) | 52 nmol |
| Cl.N=C(N)NCCC[C@H](NC(=O)CNC(=O)CNC(=O)OCc1ccccc1)C(=O)Nc1ccc2ccccc2c1 | 0 nmol |

Now let's try a different one.
q: Note Aminopeptidase activity for the molecule shown: CC(C)C[C@H](N)C(=O)NCC(=O)O [Leu-Gly, Leucyl-glycine] (H-Leu-Gly-OH)
a: 0 nmol

----------
Test system: Actinobacillus actinomycetemcomitans
Assay type: biochemical
Settings: strain ATCC 29523; β-naphthylamine liberated after 60 minutes, 37° C.
Peptide text beside a SMILES is read from it. * marks the point of attachment. βNA = c1ccc2cc(N*)ccc2c1
Reported Aminopeptidase activity values for the following molecules.
A number alone suffices; assume nmol.

Please review the following examples before continuing.
| MOLECULE | RESULT_UNIT | Aminopeptidase activity |
| --- | --- | --- |
| CC(C)C[C@H](NC(=O)[C@@H]1CCCN1C(=O)CN)C(=O)Nc1ccc2ccccc2c1 [Gly-Pro-Leu] (H-Gly-Pro-Leu-βNA) | nmol | 0 |
| C[C@H](N)C(=O)N[C@@H](C)C(=O)N[C@@H](Cc1ccccc1)C(=O)Nc1ccc2ccccc2c1 [Ala-Ala-Phe] (H-Ala-Ala-Phe-βNA) | nmol | 0 |
| CC(C)C[C@H](N)C(=O)NCC(=O)O [Leu-Gly, Leucyl-glycine] (H-Leu-Gly-OH) | nmol | 0 |
| CSCCC(N)C(=O)Nc1ccc2ccccc2c1 (racemic) | nmol | 1 |
| NC(=O)[C@@H](N)CCC(=O)O [α-Glu, α -glutamine] | nmol | 0 |

q: For Cl.N=C(N)NCCC[C@H](NC(=O)CNC(=O)CNC(=O)OCc1ccccc1)C(=O)Nc1ccc2ccccc2c1 [N-CBz-Gly-Gly-Arg] , write its Aminopeptidase activity.
a: 0

----------
Tested on: B. denticola
Assay: Aminopeptidase activity on β-naphthylamide substrates
Format: biochemical
Details: strain ATCC 33185; β-naphthylamine liberated after 60 minutes, 37° C.
Method: The enzyme activity was measured by the chromogenic properties of N-CBz-glycyl-glycyl-L-arginine-β-naphthylamide which upon hydrolysis gives a visible color. The aminopeptidase activities listed in the table reflect the nanomoles of β-naphthylamine liberated after 60 minutes under the conditions described below. […]
Peptide text beside a SMILES is read from it. * marks the point of attachment. βNA = c1ccc2cc(N*)ccc2c1
# Aminopeptidase activity listing for each entry below
// unit must come after the numeric part

| COMPOUND | OUTCOME_MEASURE | TEST_RESULT |
| --- | --- | --- |
| CC(C)C[C@H](N)C(=O)NCC(=O)O [Leu-Gly, Leucyl-glycine] (H-Leu-Gly-OH) | Aminopeptidase activity | 42 nmol |
| N=C(N)NCCC[C@H](NC(=O)CN)C(=O)O [Gly-Arg, Glycyl-arginine] (H-Gly-Arg-OH) | Aminopeptidase activity | 4 nmol |
| CSCCC(N)C(=O)Nc1ccc2ccccc2c1 (racemic) | Aminopeptidase activity | 0 nmol |

q: Provide measured Aminopeptidase activity value, entry: CC(C)C[C@H](NC(=O)[C@@H]1CCCN1C(=O)CN)C(=O)Nc1ccc2ccccc2c1 [Gly-Pro-Leu] (H-Gly-Pro-Leu-βNA)
a: 1 nmol

q: Give the measured Aminopeptidase activity for C[C@H](N)C(=O)N[C@@H](C)C(=O)N[C@@H](Cc1ccccc1)C(=O)Nc1ccc2ccccc2c1 [Ala-Ala-Phe] (H-Ala-Ala-Phe-βNA)
a: 2 nmol

q: Complete the entry with Aminopeptidase activity for NC(=O)[C@@H](N)CCC(=O)O
a: 0 nmol

q: Dear colleague, please send me the reported Aminopeptidase activity for Cl.N=C(N)NCCC[C@H](NC(=O)CNC(=O)CNC(=O)OCc1ccccc1)C(=O)Nc1ccc2ccccc2c1 when you can.
a: 0 nmol

q: Read off the recorded Aminopeptidase activity for N=C(N)NCCC[C@H](NC(=O)[C@@H](N)CCCNC(=N)N)C(=O)O [Arg-Arg, Arginyl-arginine] (H-Arg-Arg-OH)
a: 16 nmol

----------
Aminopeptidase activity values by entry
System: "Anaerobic vibrio"
Format: biochemical
Settings: strain SN2T2; β-naphthylamine liberated after 60 minutes, 37° C.
Peptide text beside a SMILES is read from it. * marks the point of attachment. βNA = c1ccc2cc(N*)ccc2c1

Worked examples follow.
| MOLECULE | TEST_RESULT |
| --- | --- |
| CSCCC(N)C(=O)Nc1ccc2ccccc2c1 (racemic) | 0 nmol |
| CC(C)C[C@H](N)C(=O)NCC(=O)O [Leu-Gly, Leucyl-glycine] (H-Leu-Gly-OH) | 0 nmol |
| NC(=O)[C@@H](N)CCC(=O)O | 0 nmol |
| C[C@H](N)C(=O)N[C@@H](C)C(=O)N[C@@H](Cc1ccccc1)C(=O)Nc1ccc2ccccc2c1 [Ala-Ala-Phe] (H-Ala-Ala-Phe-βNA) | 0 nmol |

q: // fetch Aminopeptidase activity given entry Cl.N=C(N)NCCC[C@H](NC(=O)CNC(=O)CNC(=O)OCc1ccccc1)C(=O)Nc1ccc2ccccc2c1
a: 1 nmol

q: Find the measured Aminopeptidase activity of CC(C)C[C@H](NC(=O)[C@@H]1CCCN1C(=O)CN)C(=O)Nc1ccc2ccccc2c1 [Gly-Pro-Leu] (H-Gly-Pro-Leu-βNA) and report it.
a: 0 nmol

----------
System: B. asaccharolyticus
Assay type: biochemical
Settings: strain ATCC 25260; β-naphthylamine liberated after 60 minutes, 37° C.
Peptide text beside a SMILES is read from it. * marks the point of attachment. βNA = c1ccc2cc(N*)ccc2c1
Quick reference: Aminopeptidase activity of the listed items.
Value expressed in nmol; do not type the unit.

| MOLECULE | SYSTEM_UNDER_TEST | RESULT_UNIT | Aminopeptidase activity |
| --- | --- | --- | --- |
| NC(=O)[C@@H](N)CCC(=O)O | B. asaccharolyticus | nmol | 0 |
| C[C@H](N)C(=O)N[C@@H](C)C(=O)N[C@@H](Cc1ccccc1)C(=O)Nc1ccc2ccccc2c1 [Ala-Ala-Phe] (H-Ala-Ala-Phe-βNA) | B. asaccharolyticus | nmol | 0 |
| CSCCC(N)C(=O)Nc1ccc2ccccc2c1 (racemic) | B. asaccharolyticus | nmol | 1 |
| CC(C)C[C@H](N)C(=O)NCC(=O)O [Leu-Gly, Leucyl-glycine] (H-Leu-Gly-OH) | B. asaccharolyticus | nmol | 37 |
| Cl.N=C(N)NCCC[C@H](NC(=O)CNC(=O)CNC(=O)OCc1ccccc1)C(=O)Nc1ccc2ccccc2c1 | B. asaccharolyticus | nmol | 0 |

Please turn your attention to the following entry.
q: Please indicate Aminopeptidase activity recorded for CC(C)C[C@H](NC(=O)[C@@H]1CCCN1C(=O)CN)C(=O)Nc1ccc2ccccc2c1 [Gly-Pro-Leu] (H-Gly-Pro-Leu-βNA)
a: 3
